- Read-out: Glutathione S-transferase M3 (GSTM3), GSTM3 (gene 2947)
- assay.text: LTEA_HepaRG_GSTM3: Life Technologies and Expression Analysis (LTEA) Assay for Glutathione S-transferase M3 (GSTM3) using HepaRG (AID 2283501)
- applied.conditions: mRNA level, 48 h; actives raise or lower the signal
Activity calls are given as the source filed them. The calls were made as follows: active = hit-call score of the fitted dose curve at least 0.9, where 1 is the maximum; inactive = score below 0.9.
metric.name: outcome

INSERT INTO results (molecule, experimental_result) VALUES
  ('O=C1O[C@H]([C@@H](O)CO)C(O)=C1O', 'inactive'),
  ('Clc1ccccc1C(c1ccccc1)(c1ccccc1)n1ccnc1', 'inactive'),
  ('CCCCCCCCOC(=O)c1cc(O)c(O)c(O)c1', 'inactive');

====

- Read-out: Insulin-like growth factor-binding protein 1 (IGFBP1), IGFBP1 (gene 3484)
- assay.text: LTEA_HepaRG_IGFBP1: Life Technologies and Expression Analysis (LTEA) Assay for Insulin-like growth factor-binding protein 1 (IGFBP1) using HepaRG (AID 2283508)
- applied.conditions: mRNA level, 48 h; actives raise or lower the signal
The source made the active and inactive calls. The calls were made as follows: active = hit-call score of the fitted dose curve at least 0.9, where 1 is the maximum; inactive = score below 0.9.
Labels: yes (1) (active), no (0) (inactive)

INSERT INTO results (molecule, assigned_label) VALUES
  ('O=C(Nc1ccc(Cl)cc1)Nc1ccc(Cl)c(Cl)c1', 'yes (1)'),
  ('Oc1ccccc1', 'no (0)'),
  ('Cc1cccc2ccccc12', 'no (0)'),
  ('CC(C)(C)c1csc(-c2cc3cc(OCc4ccccc4CC(=O)O)ccc3o2)n1', 'yes (1)'),
  ('CN(C[C@@H](CC[N+]12CCC(C3CCCCC3)(CC1)CC2)c1ccc(Cl)c(Cl)c1)C(=O)c1cc(C(F)(F)F)cc(C(F)(F)F)c1', 'yes (1)'),
  ('CCOC(=O)O[C@H](C)OC(=O)c1ccc2c(c1)cc(C(=O)NC1CCN(C(C)C)CC1)n2Cc1cc(-c2ccc(Cl)s2)on1', 'no (0)'),
  ('CCCCCCCCCCCO', 'no (0)'),
  ('CCN(CC)C(=O)c1cc(S(=O)(=O)Cc2ccccc2)c(N2CCC(c3ccccc3)CC2)cc1N(CC)CCN(C)C', 'yes (1)'),
  ('CN1C(=O)CC[C@H]1c1cccnc1', 'no (0)'),
  ('CC[C@H](NC(=O)c1cc(F)ccc1NS(=O)(=O)c1cccc2cccnc12)c1ccccc1', 'no (0)'),
  ('CC1=CC(=O)/C(=C(/C)O)C(=O)O1', 'no (0)'),
  ('Oc1ccc2ccccc2c1', 'no (0)'),
  ('CC/C(=C(/CC)c1ccc(O)cc1)c1ccc(O)cc1', 'yes (1)'),
  ('CO[C@H]1/C=C/O[C@@]2(C)Oc3c(C)c(O)c4c(O)c(c(/C=N/N5CCN(C)CC5)c(O)c4c3C2=O)NC(=O)/C(C)=C\C=C\[C@H](C)[C@H](O)[C@@H](C)[C@@H](O)[C@@H](C)[C@H](OC(C)=O)[C@@H]1C', 'no (0)'),
  ('O=c1[nH]sc2ccccc12', 'no (0)'),
  ('C[C@]12CC[C@@H]3c4ccc(O)cc4CC[C@H]3[C@@H]1CCC2=O', 'no (0)'),
  ('CCCCCCCCCCCC[N+](C)(C)C', 'yes (1)'),
  ('CN(C)c1ccc(C(=C2C=CC(=[N+](C)C)C=C2)c2ccc(N(C)C)cc2)cc1', 'yes (1)'),
  ('CC(=O)N1CCN(c2ccc(OC[C@H]3CO[C@](Cn4ccnc4)(c4ccc(Cl)cc4Cl)O3)cc2)CC1', 'yes (1)'),
  ('O=C=NCCCCCCN=C=O', 'no (0)'),
  ('CCN(Cc1cccc(S(=O)(=O)O)c1)c1ccc(C(=C2C=CC(=[N+](CC)Cc3cccc(S(=O)(=O)O)c3)C=C2)c2ccccc2S(=O)(=O)[O-])cc1', 'no (0)'),
  ('Cc1oc2c(NC(=O)c3c(Cl)cccc3Cl)cccc2c1C(C)(C)O', 'yes (1)'),
  ('O=C1O[C@H]([C@@H](O)CO)C(O)=C1O', 'no (0)'),
  ('Cc1occc1C(=O)Nc1ccc(C(=O)N2CCC(F)(F)/C(=C\C(=O)N3CCC(N4CCCCC4)CC3)c3ccccc32)cc1', 'yes (1)'),
  ('CCCCCCCC[Si](OCC)(OCC)OCC', 'no (0)'),
  ('CCN(Cc1cccnc1)C(=O)c1cccc(Cl)c1[C@]1(C)C(=O)N(Cc2ccc(OC)cc2OC)c2ccc(Cl)cc21', 'yes (1)'),
  ('CCCCOC(=O)CC(CC(=O)OCCCC)(OC(C)=O)C(=O)OCCCC', 'no (0)'),
  ('O=C(O)c1ccccc1-n1cc(C(=O)O)c(=O)c2cc(Nc3c(F)cc(F)cc3Cl)c(Cl)cc21', 'no (0)'),
  ('Cc1cc2c(cc1C(F)(F)F)N(C(=O)Nc1ccc(Oc3cccnc3C)nc1)CC2', 'no (0)'),
  ('O=C1c2ccccc2C(=O)N1CCc1noc(-c2ccc(CN3CCCCCC3)s2)n1', 'no (0)'),
  ('COc1ccc2cc(S(=O)(=O)N[C@H](CC(=O)N[C@H](Cc3ccc(CN4[C@H](C)CCC[C@@H]4C)cc3)C(=O)N(C)C(C)C)c3ccc4c(c3)OCO4)ccc2c1', 'yes (1)'),
  ('CC(C)(c1cc(Br)c(O)c(Br)c1)c1cc(Br)c(O)c(Br)c1', 'yes (1)'),
  ('O=CCCCC=O', 'no (0)'),
  ('CCCCCCCCOC(=O)c1cc(O)c(O)c(O)c1', 'no (0)'),
  ('CCCCCCCCN(C)CCCCCCCC', 'no (0)'),
  ('CCCC(=O)OCCC(C)C', 'no (0)'),
  ('Clc1cc(Cl)c2c(c1)N=C1CCCCCN1C2', 'yes (1)'),
  ('O=C1CCC(C2CCCCC2)CC1', 'no (0)'),
  ('C[C@]12CC[C@@H]3c4ccc(O)cc4CC[C@H]3[C@@H]1CC[C@H]2O', 'no (0)');
